Consider the following molecules; for each one, report its TGI.
# System: CAKI-1 renal
# testName: NCI tumour cell line growth inhibition, 48 h

Tested system CAKI-1 renal; TGI recorded for `O=C1CC[C@H](N2C(=O)c3cccc4c(Cc5ccc(CN6CCOCC6)cc5)ccc2c34)C(=O)N1` was > 100 µM

Record COC(=O)C(=O)C(C(=O)C(=O)Nc1cccc(C(C)=O)c1)c1nc2ccc([N+](=O)[O-])cc2[nH]c1=O (stereo not drawn) ; system CAKI-1 renal; TGI = > 100 µM

For `COc1ccc(-c2csc(=Nc3ccccc3)n2CCCN(C)C)cc1` on CAKI-1 renal, measured TGI was > 100 µM

----------
# Tested on: KM12 colon
# testName: NCI tumour cell line growth inhibition, 48 h; in the data active means GI50 below about 0.43 µM; inactive means the rest
Log the outcome using a class from 1.0 for active, 0.0 for inactive

What was the test verdict on NS(=O)(=O)OCC1OC(n2cnc3cncnc32)C(O)C1O (stereo not given) ? 1.0

Which outcome was entered for the compound `CN1CCC(COc2cnc(-c3cccc(Cn4nc(-c5cccc(C#N)c5)ccc4=O)c3)nc2)CC1` in this test? 0.0

Any idea what this test logged for `COc1ccc(/C=C(/C(=O)N2CCN(c3ccccc3)CC2)c2cc(OC)c(OC)c(OC)c2)cc1N` ? 1.0

GET /call?item= OC(c1cc(-c2cccc(Cl)c2)nc2ccccc12)C1CCCCN1 (stereo not given) returns the recorded outcome of this test. 0.0

Called result for COC1C(CO)OC(n2c3ccccc3c3c4c(c5c6ccccc6[nH]c5c32)C(=O)NC4=O)C(O)C1O (stereo not given) 1.0

How was `CCOC(=O)c1ccccc1OC(=O)NNc1ccccc1` classified in this test? 1.0

# fetch the recorded call for `O=C(/C=C/c1ccco1)c1cc(F)c(Cl)cc1Cl` here 0.0

Call for entry `Cc1ccc(Cl)cc1Nc1nc(C(F)(F)F)ccc1C(=O)N/N=C/c1cccnc1` : 0.0

Each compound tested received a call. Report the one for `CCN(CC)CCNc1ccc(C)c2sc3cc(Cl)ccc3c(=O)c12` . 0.0

What is the recorded call for this compound in the test? `Cc1cc(Cl)cc2c(N=Nc3ccc(S(N)(=O)=O)cc3)c(O)[nH]c12` 0.0

----------
# Tested on: A549 NSCLC
# testName: NCI tumour cell line growth inhibition, 48 h
So I've got a bunch of compounds here, and I need their TGI values.

Reading of TGI for `O=C(O)/C=C/C(=O)N1Cc2cc3ccccc3nc2C1` with A549 NSCLC: > 100 µM

Reported A549 NSCLC TGI for item `CCN(CC)CCC(=O)c1ccc(Sc2ccc(F)cc2)cc1` was > 100 µM

Short answer on A549 NSCLC for `CC(C)N1CC2CN(Cc3ccccc3)CC(C1)C2=O` , TGI: > 100 µM

Record for `C=C(C)[C@@H]1CC[C@]2(COCCC#N)CC[C@]3(C)[C@H](CC[C@@H]4[C@@](C)(CCCNCCC#N)[C@H](C(=C)C)CC[C@]43C)[C@@H]12` under target or system A549 NSCLC: TGI reported as > 50 µM

Log: A549 NSCLC, compound `COC(=O)[C@H](Cc1ccccc1)NC(=O)/C(=C/C(C)C)NC(=O)[C@H](CCSC)NC=O` , TGI = > 100 µM

# lookup: O=C1CC(c2c(-c3ccccc3)[nH]c3ccccc23)C(=O)N1 (stereo not given) on A549 NSCLC, TGI = > 100 µM

The recorded TGI with A549 NSCLC for Nc1nc2c(ncn2C2CCC(CO)O2)c(=O)n1C(=O)c1ccccc1 (stereo not given) was > 100 µM

Reported A549 NSCLC TGI for item CCCCCCCCOCC(O)COC(C)C (stereo not given) was > 100 µM

// assay A549 NSCLC, entry COC(=O)C1=Cc2cc(OC)c(OC)c(OC)c2[C@H](c2cc(OC)c(OC)c(OC)c2)C1C(=O)OC (stereo not given in full) , TGI value = > 100 µM

Reported A549 NSCLC TGI for item `C=CCc1[nH]c2c(OCc3ccccc3)cc(N(CC=C)C(C)=O)cc2c1C` was 26.2 µM
